These data points were gathered from PubChem BioAssay.

- protocol: growth inhibition of DIPG cells – cell-based, MIPE5.0 library, qHTS (AID 1347068);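 for IC50: cells exposed to compound for 48 hours before viability readout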
- applied.conditions: SU-DIPG-XXV viability
Results filed as inconclusive are left out. Active and inactive are the calls of the source. No cut-off is given here; in the data, nearly all actives have IC50 up to about 30 µM.
Can you answer with just one of these options? true (1) (active), false (0) (inactive)

Reference set (5 entries):
Lookup: Hey, what did the test say about `CNC(=O)c1cc(Oc2ccc(NC(=O)Nc3ccc(Cl)c(C(F)(F)F)c3)c(F)c2)ccn1` ?
Found: true (1)

Lookup: Hey, what did the test say about `CCN(c1cc(-c2ccc(CN3CCOCC3)cc2)cc(C(=O)NCc2c(C)cc(C)[nH]c2=O)c1C)C1CCOCC1` ?
Found: false (0)

Lookup: Hey, what did the test say about `CC(C)n1c(/C=C/[C@H](O)C[C@H](O)CC(=O)O)c(-c2ccc(F)cc2)c2ccccc21` ?
Found: false (0)

Lookup: Hey, what did the test say about C=C1C(=O)OC(CCCCCCCC)C1C(=O)O (stereo not given) ?
Found: false (0)

Lookup: Hey, what did the test say about `CCOc1ccn(-c2ccc(F)cc2)c(=O)c1C(=O)Nc1ccc(Oc2ccnc(N)c2Cl)c(F)c1` ?
Found: false (0)

Others:
Lookup: Hey, what did the test say about `O=c1[nH]nc2c3c(cccc13)NC(CN1Cc3ccccc3C1)=N2` ?
Found: false (0)

Lookup: Hey, what did the test say about `C=CC(=O)Nc1ccc2ncnc(Nc3ccc(OCc4cccc(F)c4)c(Cl)c3)c2c1` ?
Found: true (1)

Lookup: Hey, what did the test say about COCCOC(=O)C1=C(C)NC2=C(C(=O)CC(c3ccccc3OC)C2)C1c1cccc(O)c1 (stereo not given) ?
Found: false (0)

Lookup: Hey, what did the test say about `CC1(N)CCN(c2cnc(-c3cccc(Cl)c3Cl)c(N)n2)CC1` ?
Found: false (0)

Lookup: Hey, what did the test say about `CN1CCN(C(=O)c2ccc(-c3ccc4c(C=O)c(O)ccc4c3)s2)CC1` ?
Found: false (0)
